The measured values listed here are drawn from patent US20240059769A1.

- Target Desc: T1, recombinant human IL-13 (human, UniProt P35225 35-146)
- T1 construct: also called rh-IL-13; hIL-13
- T1 sequence (P35225 35-146 limits assumed): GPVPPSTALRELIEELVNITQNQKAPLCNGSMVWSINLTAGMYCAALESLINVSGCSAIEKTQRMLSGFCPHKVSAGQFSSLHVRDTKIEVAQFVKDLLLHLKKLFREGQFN
- Assay Details: SPR
Reported Property: kon (M⁻¹ s⁻¹)
Supply the numeric figure in M⁻¹ s⁻¹, leaving out any unit text.

BDG38.127 (antibody, V domains shown, IgG1) VH: QMQLVESGGGVVQPGRSLTLSCAASGFEFRTYGMHWVRQAPGKGLEWVGVIWYDGSATHYADSVKGRFTITRDNSKNTLNLQMNSLRAEDTAVYYCARAPQWYLTAEAFDLWGQGTMVTVSS VL: SYILTQPPSVSVAPGETATITCGGNLIGAKLVHWYQQKPGQAPVLVIYDDSDRPSRIPERFSGSNIGNTATLTISDVEAGDEADYYCQVWDYYSDTYVFGGGTKLTVL ... 5.91e+06
BDG38.118 (antibody, V domains shown, IgG1) VH: QMQLVESGGGVVQPGRSLRLSCAASGFEFRTYGMHWVRQAPGKGLEWVGVIWYDGSATHYADSVKGRFTITRDNSKNTLNLQMNSLRVEDTAVYYCVRAPQWYLTAEAFDLWGQGTMVTVSS VL: SYILTQPPSVSVAPGETATITCGGNLIGARLVHWYQQKPGQAPVLVIYDDSDRPSRIPERFSGSNIGNTATLTISDVEEGDEADYYCQVWDYSSDHYVFGGGTKLTVL ... 4.27e+06

Now for another entry.
For BDG38.132 (antibody, V domains shown, IgG1) VH: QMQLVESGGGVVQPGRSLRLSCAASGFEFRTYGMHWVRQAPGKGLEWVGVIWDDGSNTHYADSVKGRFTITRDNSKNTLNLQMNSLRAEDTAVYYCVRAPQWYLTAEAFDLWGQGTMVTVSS VL: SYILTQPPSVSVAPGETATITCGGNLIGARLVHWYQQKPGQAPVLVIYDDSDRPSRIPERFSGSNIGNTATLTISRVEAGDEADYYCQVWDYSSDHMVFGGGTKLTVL , what is its reported kon?
1.03e+07
